Values compiled from patent US9365533B2.

# System: HFLS-OA cells
# methodNotes: Suppressive action to TNF-α-induced proliferation of synovial cells (HFLS-OA), BrdU ELISA
# Assay type: cell-based
# protocolConditions: Synovial cell, 120 h; 200 μmol/L test substance; human recombinant TNF-α 10 ng/mL; 5 days; BrdU incorporation increase by TNF-α = 100%; read-out: Synovial Cell Proliferation Rate (%)
Field: activity at 200 µM. Provide a value for each of the compounds that follow.
The figure you give is taken to be in %; do not add the unit.

Recorded activity at 200 µM (compound O=c1oc2c(OS(=O)(=O)c3cccc(C(F)(F)F)c3)cccc2cc1NS(=O)(=O)c1cccc(Br)c1 [Compound 56] ): -44.4

Entry O=c1oc2c(OS(=O)(=O)c3cccc(Br)c3)cccc2cc1NS(=O)(=O)c1cccnc1 [Compound 38] ; activity at 200 µM = -31.2

Entry O=c1oc2c(OS(=O)(=O)c3cccc(C(F)(F)F)c3)cccc2cc1NS(=O)(=O)c1ccc([N+](=O)[O-])cc1 [Compound 42] , activity at 200 µM reported as -35.5

According to the records, this compound O=c1oc2c(OS(=O)(=O)c3ccc(-c4ccccc4)cc3)cccc2cc1NS(=O)(=O)c1cccc([N+](=O)[O-])c1 [Compound 62] displays activity at 200 µM of -49.2

activity at 200 µM recorded for this compound, O=c1oc2c(OS(=O)(=O)c3ccccc3)cccc2cc1NS(=O)(=O)c1cccc(C(F)(F)F)c1 [Compound 28] , is -33.7

Per the records, this compound ( Cc1ccc(S(=O)(=O)Nc2cc3cccc(OS(=O)(=O)c4ccc(C)cc4)c3oc2=O)cc1 [Compound 4] ) has activity at 200 µM equal to -88.1

Record O=c1oc2c(OS(=O)(=O)c3ccc(C(F)(F)F)cc3)cccc2cc1NS(=O)(=O)c1cccc(Br)c1 [Compound 58] , field activity at 200 µM: -42.8

###

# Tested on: HFLS-OA cells
# methodNotes: Suppressive action to TNF-α-induced proliferation of synovial cells (HFLS-OA), BrdU ELISA
# Format: cell-based
# protocolConditions: Synovial cell, 120 h; 200 μmol/L test substance; human recombinant TNF-α 10 ng/mL; 5 days; BrdU incorporation increase by TNF-α = 100%; read-out: Synovial Cell Proliferation Rate (%)
quantityKind: activity at 200 µM (%)
Numeric only. Scale: %

Per the records, this compound ( O=c1oc2c(OS(=O)(=O)c3ccccc3)cccc2cc1NS(=O)(=O)c1ccc(C(F)(F)F)cc1 ) has activity at 200 µM equal to -36.3

// recorded activity at 200 µM for N#Cc1cccc(S(=O)(=O)Nc2cc3cccc(OS(=O)(=O)c4ccccc4)c3oc2=O)c1 : -38.4

For this compound ( O=C(O)c1ccc(S(=O)(=O)Oc2cccc3cc(NS(=O)(=O)c4cccc([N+](=O)[O-])c4)c(=O)oc23)cc1 ), measured activity at 200 µM is -36.1

O=c1oc2c(OS(=O)(=O)c3cccc([N+](=O)[O-])c3)cccc2cc1NS(=O)(=O)c1cccs1 yielded activity at 200 µM of -31.5

GET /value?item= O=c1oc2c(OS(=O)(=O)c3cccc(F)c3)cccc2cc1NS(=O)(=O)c1cccc(F)c1 &field=activity at 200 µM returns -90.6

Short answer for O=c1oc2c(OS(=O)(=O)c3cccc([N+](=O)[O-])c3)cccc2cc1NS(=O)(=O)c1cccc(C(F)(F)F)c1 : activity at 200 µM was -46.4

Value of measured activity at 200 µM for the entry O=c1oc2c(OS(=O)(=O)c3cccc([N+](=O)[O-])c3)cccc2cc1NS(=O)(=O)c1ccc(C(F)(F)F)cc1 : -38.9

Reported activity at 200 µM ( O=c1oc2c(OS(=O)(=O)c3ccc([N+](=O)[O-])cc3)cccc2cc1NS(=O)(=O)c1ccc([N+](=O)[O-])cc1 ) = -19.9

O=c1oc2c(OS(=O)(=O)c3cccc(Br)c3)cccc2cc1NS(=O)(=O)c1cccc([N+](=O)[O-])c1 has a reported activity at 200 µM of -32.8

Input O=c1oc2c(OS(=O)(=O)c3ccc([N+](=O)[O-])cc3)cccc2cc1NS(=O)(=O)c1cccc(C(F)(F)F)c1 . Output activity at 200 µM: -37.7
